target: hUNG (Homo sapiens); construct: truncated catalytically active human uracil–DNA glycosylase (hUNG ΔN84); His6 (N); linker with thrombin cleavage site (pET-15b) (N); made in house; host or cells: E. coli BL21(DE3), pET-15b; assay: Inhibition mechanism determination, steady-state kinetics of substrate cleavage by hUNG; format: biochemical; details: uncompetitive model; read-out: Ki
Would you mind telling me the reported Ki of each entry?
Quote the value and follow it with the unit of measurement.

smiles_repr=COc1ccc(C=C2C(=O)NC(=O)NC2=O)c(OC)c1 endpoint_value="550 µM"

Kindly review the next molecule as well.
## Task # Ki lookup, item COc1cc(C=C2C(=O)NC(=O)NC2=O)cc(Cl)c1OC
## Result 250 µM

---

Kindly supply the reported Vmax values for the records listed here.
target: hUNG (Homo sapiens, UniProt P13051); construct: truncated catalytically active human uracil–DNA glycosylase (hUNG ΔN84); His6 (N); linker with thrombin cleavage site (pET-15b) (N); made in house; host or cells: E. coli BL21(DE3), pET-15b; assay: Inhibition mechanism determination, steady-state kinetics of substrate cleavage by hUNG; type: biochemical; conditions: uncompetitive model; fit in the presence of the inhibitor
Sequence (P13051 94-313 limits assumed): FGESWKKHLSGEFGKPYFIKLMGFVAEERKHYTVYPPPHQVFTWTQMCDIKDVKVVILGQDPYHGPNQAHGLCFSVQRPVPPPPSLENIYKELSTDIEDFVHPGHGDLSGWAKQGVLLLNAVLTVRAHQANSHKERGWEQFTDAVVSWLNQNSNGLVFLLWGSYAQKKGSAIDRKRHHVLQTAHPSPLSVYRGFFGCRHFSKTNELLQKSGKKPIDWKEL
Give bare numbers, in µM/min.

The cases that follow already have their Vmax on record.
compound="CC(Oc1ccc(C=C2C(=O)NC(=O)NC2=O)cc1)C(=O)O (stereo not shown) [4G]" test_system="hUNG (Homo sapiens, UniProt P13051)" measurement_name=Vmax measurement_units=µM/min endpoint_value=0.043
compound="COc1cc(C=C2C(=O)NC(=O)NC2=O)cc(Cl)c1OC [4F]" test_system="hUNG (Homo sapiens, UniProt P13051)" measurement_name=Vmax measurement_units=µM/min endpoint_value=0.075
compound="COc1ccc(C=C2C(=O)NC(=O)NC2=O)c(OC)c1 [4B]" test_system="hUNG (Homo sapiens, UniProt P13051)" measurement_name=Vmax measurement_units=µM/min endpoint_value=0.024

// below: Vmax requested for another compound
## Task What value of measured Vmax is listed for CN(C)c1ccc(C=C2C(=O)NC(=O)NC2=O)cc1 [3A] ?
## Result 0.034

---

target: hUNG (Homo sapiens, UniProt P13051); construct: truncated catalytically active human uracil–DNA glycosylase (hUNG ΔN84); His6 (N); linker with thrombin cleavage site (pET-15b) (N); made in house; host or cells: E. coli BL21(DE3), pET-15b; assay: Inhibition mechanism determination, steady-state kinetics of substrate cleavage by hUNG; type: biochemical; conditions: competitive model; best model’s likelihood taken for 1
measurement name: θ rel (Akaike’s relative likelihood of the model)

molecule=CN(C)c1ccc(C=C2C(=O)NC(=O)NC2=O)cc1 endpoint_value=0.655
molecule="CC(Oc1ccc(C=C2C(=O)NC(=O)NC2=O)cc1)C(=O)O (stereo not shown)" endpoint_value="best model"
molecule=COc1cc(C=C2C(=O)NC(=O)NC2=O)cc(Cl)c1OC endpoint_value=0.8
molecule=COc1ccc(C=C2C(=O)NC(=O)NC2=O)c(OC)c1 endpoint_value="best model"

---

molecular target: hUNG (Homo sapiens); construct: truncated catalytically active human uracil–DNA glycosylase (hUNG ΔN84); His6 (N); linker with thrombin cleavage site (pET-15b) (N); made in house; host or cells: E. coli BL21(DE3), pET-15b; assay: Inhibition mechanism determination, steady-state kinetics of substrate cleavage by hUNG; format: biochemical; details: competitive model; fit in the presence of the inhibitor
Task for the reader: assign each of the following molecules its reported Vmax.
Numbers only, in µM/min.

molecule="CC(Oc1ccc(C=C2C(=O)NC(=O)NC2=O)cc1)C(=O)O (stereo not shown)" measurement_name=Vmax endpoint_value=0.042
molecule=CN(C)c1ccc(C=C2C(=O)NC(=O)NC2=O)cc1 measurement_name=Vmax endpoint_value=0.029
molecule=COc1ccc(C=C2C(=O)NC(=O)NC2=O)c(OC)c1 measurement_name=Vmax endpoint_value=0.019

For the next question, use this molecule.
## Task Recorded Vmax of COc1cc(C=C2C(=O)NC(=O)NC2=O)cc(Cl)c1OC , please.
## Result 0.053

---

target: hUNG (Homo sapiens); construct: truncated catalytically active human uracil–DNA glycosylase (hUNG ΔN84); His6 (N); linker with thrombin cleavage site (pET-15b) (N); made in house; host or cells: E. coli BL21(DE3), pET-15b; experiment: Inhibition mechanism determination, steady-state kinetics of substrate cleavage by hUNG; format: biochemical; conditions: uncompetitive model; best model’s likelihood taken for 1
measurement name: θ rel (Akaike’s relative likelihood of the model)

compound="CC(Oc1ccc(C=C2C(=O)NC(=O)NC2=O)cc1)C(=O)O (stereo not shown)" endpoint_value=0.312
compound=COc1cc(C=C2C(=O)NC(=O)NC2=O)cc(Cl)c1OC endpoint_value="best model"
compound=CN(C)c1ccc(C=C2C(=O)NC(=O)NC2=O)cc1 endpoint_value="best model"
compound=COc1ccc(C=C2C(=O)NC(=O)NC2=O)c(OC)c1 endpoint_value="2.53 × 10^−5"

---

System: HEK 293FT cells
Assay: Cell toxicity assay (MTT)
Format: cell-based, human
Conditions: Homo sapiens, HEK293FT, 72 h, read-out: effective concentration (toxicity)
Experimental: To assess the toxicity of UNG inhibitors for human cells, we have treated HEK293 cell line with the compounds 4B and 4F as the best inhibitors (Table 1). […] Human embryonic kidney cells (HEK 293FT) were from Thermo Fisher Scientific (Waltham, MA, USA; Cat. #R70007). […] Cytotoxicity was determined by the colorimetric MTT (3-(4,5-dimethyl-2-thiazolyl)-2,5-diphenyl-2H-tetrazolium bromide) assay. […]
For each of the molecules below, state its EC50.
Give bare numbers, in µM.

smiles_repr=COc1ccc(C=C2C(=O)NC(=O)NC2=O)c(OC)c1 measurement_units=µM endpoint_value=69

Attention now shifts to the item below.
## Task Using the record for COc1cc(C=C2C(=O)NC(=O)NC2=O)cc(Cl)c1OC , report its EC50.
## Result 77

---

molecular target: hUNG (Homo sapiens); construct: truncated catalytically active human uracil–DNA glycosylase (hUNG ΔN84); His6 (N); linker with thrombin cleavage site (pET-15b) (N); made in house; host or cells: E. coli BL21(DE3), pET-15b; experiment: Inhibition mechanism determination, steady-state kinetics of substrate cleavage by hUNG; type: biochemical; conditions: Ki, uncompetitive model
measurement name: Ki (mM)
Give bare numbers, in mM.

## Task # query: Ki of entry CN(C)c1ccc(C=C2C(=O)NC(=O)NC2=O)cc1 [3A]
## Result 1.3
